A collection of compounds and their measured Population Pyknosed Nuclei (%)
system: Fibroblast; test: Multiplex assay against human fibroblast; type: toxicity, cell-based; details: 24 h, 10 µM, compound concentration 10 uM, replicate 1
READOUT TYPE: Population Pyknosed Nuclei (%)

[[record]]
compound = "Cc1ccccc1C(=O)Nc1ccc(C(=O)N2CCCC(N(C)C)c3ccccc32)cc1.Cl (centres undefined)"
readout_type = "Population Pyknosed Nuclei (%)"
units_symbol = "%"
value_measured = 11

[[record]]
compound = "C[C@H]1[C@H]2CC[C@H]3[C@@H]4CC=C5C[C@@H](N(C)C)CC[C@]5(C)[C@H]4CC[C@]23CN1C [CONESSINE]"
readout_type = "Population Pyknosed Nuclei (%)"
units_symbol = "%"
value_measured = 9

[[record]]
compound = "Cc1ccc(C(C)(O)c2nc3ccccc3s2)c(C)c1 (centres undefined)"
readout_type = "Population Pyknosed Nuclei (%)"
units_symbol = "%"
value_measured = 12

[[record]]
compound = "COc1cc(NC(=O)CCN2CCC(OC(=O)Nc3ccccc3-c3ccccc3)CC2)c(Cl)cc1CNC[C@H](O)c1ccc(O)c2[nH]c(=O)ccc12 [BATEFENTEROL]"
readout_type = "Population Pyknosed Nuclei (%)"
units_symbol = "%"
value_measured = 11


These data points were gathered from ChEMBL document CHEMBL5058577.
